Molecular target: PPAR-α (Homo sapiens)
Construct: expressed in transfected cells; host or cells: CV-1 (African green monkey kidney)
Sequence (Q07869 167-468): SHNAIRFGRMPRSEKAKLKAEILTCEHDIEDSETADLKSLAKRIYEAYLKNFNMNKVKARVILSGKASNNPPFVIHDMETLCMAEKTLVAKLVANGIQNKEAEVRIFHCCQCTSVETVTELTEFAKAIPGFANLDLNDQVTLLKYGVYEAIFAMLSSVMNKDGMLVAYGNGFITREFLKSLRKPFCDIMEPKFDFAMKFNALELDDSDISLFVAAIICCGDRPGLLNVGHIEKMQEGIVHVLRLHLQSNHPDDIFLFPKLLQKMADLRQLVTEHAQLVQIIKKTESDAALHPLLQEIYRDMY
Assay: Measurement of PPAR-α activity (GAL4 luciferase reporter assay in CV-1 cells)
Assay type: cell-based
Conditions: 100(A/B): A = maximum PPAR-α activity of test compound at 3, 10, 30 and 100 μM, B = activity of the compound of WO/2011/058154 at 100 μM, 18 to 20 hours, read-out: Relative fold induction (%) of PPAR α
Counter-ions that a name gives are not always drawn.
# reported Emax; entries follow
quantity.measured: Emax (%)

CSc1cc(F)c(F)cc1-c1ccc(OCc2cccc(C(=O)N(CCS(=O)(=O)N(C)C)CC(=O)O)c2)cc1 :: 10
CSc1cc(F)c(F)cc1-c1ccc(OCc2cccc(C(=O)N(CCNC(C)=O)CC(=O)O)c2)cc1 :: 25
CSc1cc(F)c(F)cc1-c1ccc(OCc2cccc(C(=O)N3C(CC#N)CC[C@H]3C(=O)O)c2)cc1 (stereo partly shown) :: 12
CSc1cc(F)c(F)cc1-c1ccc(OCc2cccc(C(=O)N(CC(=O)O)CC(=O)O)c2)cc1 :: 10
CS(=O)(=O)CCCN(CC(=O)O)C(=O)c1cccc(COc2ccc(-c3cc(F)c(F)c4ccoc34)cc2)c1 :: 40
CCN1CCC(CN(CC(=O)O)C(=O)c2cccc(COc3ccc(-c4cc(F)c(F)cc4SC)cc3)c2)CC1 [Example 38, Trifluoroacetate] :: 8.9
CSc1cc(F)c(F)cc1-c1ccc(OCc2cccc(C(=O)N(CCN3CCS(=O)(=O)CC3)CC(=O)O)c2)cc1 [Example 41, Trifluoroacetate] :: 12

====

Molecular target: human GYS1 (glycogen synthase) (Homo sapiens, UniProt P13807)
Sequence (P13807 1-737): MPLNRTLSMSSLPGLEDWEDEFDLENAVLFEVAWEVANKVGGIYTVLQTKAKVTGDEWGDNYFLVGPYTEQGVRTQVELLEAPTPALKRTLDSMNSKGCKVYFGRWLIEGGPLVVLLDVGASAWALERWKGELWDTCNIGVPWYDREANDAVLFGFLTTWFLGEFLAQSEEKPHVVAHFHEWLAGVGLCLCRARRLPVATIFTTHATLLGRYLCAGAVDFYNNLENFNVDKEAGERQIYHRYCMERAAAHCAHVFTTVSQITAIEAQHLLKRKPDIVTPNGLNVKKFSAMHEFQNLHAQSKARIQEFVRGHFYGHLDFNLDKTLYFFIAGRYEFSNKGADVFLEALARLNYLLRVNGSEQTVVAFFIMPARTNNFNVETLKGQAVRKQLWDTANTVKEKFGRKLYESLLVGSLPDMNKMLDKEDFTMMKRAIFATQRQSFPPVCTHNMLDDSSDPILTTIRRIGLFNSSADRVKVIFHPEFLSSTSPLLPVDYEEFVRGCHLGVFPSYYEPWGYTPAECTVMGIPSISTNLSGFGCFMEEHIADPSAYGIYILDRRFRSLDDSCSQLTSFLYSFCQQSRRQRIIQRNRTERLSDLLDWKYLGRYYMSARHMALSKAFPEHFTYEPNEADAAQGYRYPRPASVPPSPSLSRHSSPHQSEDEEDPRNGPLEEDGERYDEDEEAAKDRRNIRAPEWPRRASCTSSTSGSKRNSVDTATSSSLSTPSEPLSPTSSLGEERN
Assay: Measurement of glycogen synthase activity
Conditions: concentration causing 50% increase in relative activity; 100% = compound of Example 1 of WO/2011/058154 at 10 μM; 10 mM Glucose-6-phosphate; 37° C. for 25 minutes (Examples 1 to 61 and 67 to 82) or 20 minutes (Examples 62 to 66); absorbance at 340 nm
pEC50: −log10 of the molar value. Structures can show the parent of a compound that is named as a salt.
Readings of pEC50 for the listed compounds
quantity.measured: pEC50

N#CCCN(CC(=O)O)C(=O)c1cccc(COc2ccc(-c3cc(F)c(F)c4ccoc34)cc2)c1 :: 7.66
O=C(O)CN(CC1CCNCC1)C(=O)c1cccc(COc2ccc(-c3cc(F)c(F)c4ccoc34)cc2)c1 [Example 12, Trifluoroacetate] :: 7.80
CSc1cc(F)c(F)cc1-c1ccc(OCc2cccc(C(=O)N(CCS(=O)(=O)N(C)C)CC(=O)O)c2)cc1 :: 7.80
CN(C)CCN(CC(=O)O)C(=O)c1cccc(COc2ccc(-c3cc(F)c(F)c4ccoc34)cc2)c1 [Example 13, Trifluoroacetate] :: 7.82
CSc1cc(F)c(F)cc1-c1ccc(OCc2cccc(C(=O)N(CC(=O)O)Cc3ccnn3C)c2)cc1 :: 7.66
CSc1cc(F)c(F)cc1-c1ccc(OCc2cccc(C(=O)N3C[C@H](N(C)C)C[C@H]3C(=O)O)c2)cc1 [Example 63, Trifluoroacetate] :: 7.77
CSc1cc(F)c(F)cc1-c1ccc(OCc2cccc(C(=O)N(CC(=O)O)[C@H]3CC[C@@H](N)CC3)c2)cc1 [Example 48, Trifluoroacetate] :: 7.89
CCN1CCC(CN(CC(=O)O)C(=O)c2cccc(COc3ccc(-c4cc(F)c(F)cc4SC)cc3)c2)CC1 [Example 38, Trifluoroacetate] :: 7.72
CSc1cc(F)c(F)cc1-c1ccc(OCc2cccc(C(=O)N(CC(=O)O)CC3CCNCC3)c2)cc1 [Example 35, Trifluoroacetate] :: 7.72
CS(=O)(=O)CCN(CC(=O)O)C(=O)c1cccc(COc2ccc(-c3cc(F)c(F)c4ccoc34)cc2)c1 :: 7.82
CSc1cc(F)c(F)cc1-c1ccc(OCc2cccc(C(=O)N(CC(=O)O)Cc3cnco3)c2)cc1 :: 7.74
CSc1cc(F)c(F)cc1-c1ccc(OCc2cccc(C(=O)N(CCc3noc(C)n3)CC(=O)O)c2)cc1 :: 7.96
CSc1cc(F)c(F)cc1-c1ccc(OCc2cccc(C(=O)N(CC(=O)O)Cc3ccncc3)c2)cc1 [Example 19, Trifluoroacetate] :: 8.47
CSc1cc(F)c(F)cc1-c1ccc(OCc2cccc(C(=O)N(CC(=O)O)Cc3ncco3)c2)cc1 :: 7.72
COC(C)CN(CC(=O)O)C(=O)c1cccc(COc2ccc(-c3cc(F)c(F)cc3SC)cc2)c1 (stereo not shown) :: 8.11
CSc1cc(F)c(F)cc1-c1ccc(OCc2cccc(C(=O)N(CCCS(C)(=O)=O)CC(=O)O)c2)cc1 :: 7.70
CS(=O)(=O)CCCN(CC(=O)O)C(=O)c1cccc(COc2ccc(-c3cc(F)c(F)c4ccoc34)cc2)c1 :: 7.70
CSc1cc(F)c(F)cc1-c1ccc(OCc2cccc(C(=O)N(CC(=O)O)Cc3ccon3)c2)cc1 :: 7.82
CSc1cc(F)c(F)cc1-c1ccc(OCc2cccc(C(=O)N(CC(=O)O)Cc3cccnc3)c2)cc1 [Example 39, Trifluoroacetate] :: 7.68
COCCOCCN(CC(=O)O)C(=O)c1cccc(COc2ccc(-c3cc(F)c(F)cc3SC)cc2)c1 :: 8.02
CC(=O)N1CCC(CN(CC(=O)O)C(=O)c2cccc(COc3ccc(-c4cc(F)c(F)c5ccoc45)cc3)c2)CC1 :: 7.70
CSc1cc(F)c(F)cc1-c1ccc(OCc2cccc(C(=O)N(CC(=O)O)Cc3cn(C)cn3)c2)cc1 :: 8.10
CSc1cc(F)c(F)cc1-c1ccc(OCc2cccc(C(=O)N(CC(=O)O)CC3CCCNC3)c2)cc1 (stereo not shown) [Example 50, Trifluoroacetate] :: 8.20
COC1CCN(C(=O)c2cccc(COc3ccc(-c4cc(F)c(F)cc4SC)cc3)c2)C1C(=O)O (stereo in doubt) :: 7.68
NC(=O)CCN(CC(=O)O)C(=O)c1cccc(COc2ccc(-c3cc(F)c(F)c4ccoc34)cc2)c1 :: 7.66
CCN(CC)CCN(CC(=O)O)C(=O)c1cccc(COc2ccc(-c3cc(F)c(F)cc3SC)cc2)c1 [Example 24, Trifluoroacetate] :: 7.96

====

Target: human GYS1 (glycogen synthase) (Homo sapiens)
Assay: Measurement of glycogen synthase activity
Details: concentration causing 50% increase in relative activity; 100% = compound of Example 1 of WO/2011/058154 at 10 μM; 10 mM Glucose-6-phosphate; 37° C. for 25 minutes (Examples 1 to 61 and 67 to 82) or 20 minutes (Examples 62 to 66); absorbance at 340 nm
Counter-ions that a name gives are not always drawn.
Please note: EC50 exactly at 20 nM is -1. Only values below 20 nM get 1.

CSc1cc(F)c(F)cc1-c1ccc(OCc2cccc(C(=O)N(CCN3CCS(=O)(=O)CC3)CC(=O)O)c2)cc1 [Example 41, Trifluoroacetate] :: -1
CSc1cc(F)c(F)cc1-c1ccc(OCc2cccc(C(=O)N3C(CC#N)CC[C@H]3C(=O)O)c2)cc1 (some centres unmarked) :: 1
O=C(O)CN(CC1CCOCC1)C(=O)c1cccc(COc2ccc(-c3cc(F)c(F)c4ccoc34)cc2)c1 :: 1
CSc1cc(F)c(F)cc1-c1ccc(OCc2cccc(C(=O)N(CC(=O)O)CC3CCS(=O)(=O)C3)c2)cc1 (centres unmarked) :: -1
COCCCN(CC(=O)O)C(=O)c1cccc(COc2ccc(-c3cc(F)c(F)cc3SC)cc2)c1 :: 1
Cc1coc2c(-c3ccc(OCc4cccc(C(=O)N(CCS(C)(=O)=O)CC(=O)O)c4)cc3)cc(F)c(F)c12 :: 1
COC[C@H]1CC[C@@H](C(=O)O)N1C(=O)c1cccc(COc2ccc(-c3cc(F)c(F)cc3SC)cc2)c1 :: 1
CSc1cc(F)c(F)cc1-c1ccc(OCc2cccc(C(=O)N3C(C(N)=O)CC[C@H]3C(=O)O)c2)cc1 (single isomer, unassigned) [Example 57] :: 1
